Target: T1, SNAP-GAL2R V259^6.58A (human, UniProt O43603 1-387, V259^6.58A, Lumi4-Tb on the SNAP tag)
T1 construct: also called V259A; source: HEK293, transfected, on cells; not shown: SNAP tag, N-terminal, kept
T1 sequence (looked up): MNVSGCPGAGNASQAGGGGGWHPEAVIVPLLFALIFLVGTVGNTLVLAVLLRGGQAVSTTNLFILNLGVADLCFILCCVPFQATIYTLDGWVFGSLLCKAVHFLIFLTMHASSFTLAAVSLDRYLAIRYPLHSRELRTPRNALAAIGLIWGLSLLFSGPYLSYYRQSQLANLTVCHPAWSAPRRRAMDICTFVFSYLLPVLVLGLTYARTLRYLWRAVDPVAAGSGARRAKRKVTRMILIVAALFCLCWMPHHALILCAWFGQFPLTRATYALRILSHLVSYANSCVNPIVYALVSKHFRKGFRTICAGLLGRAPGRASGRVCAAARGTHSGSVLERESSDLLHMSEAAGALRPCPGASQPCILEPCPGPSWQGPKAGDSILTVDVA
Assay: AlphaScreen or HTRF; saturation binding: HEK293 cells transfected with SNAP-tagged receptor (WT or mutant) and labelled with SNAP-Lumi4-Tb, incubated with increasing concentrations of galanin-A2 in the presence or absence of 100 uM unlabeled galanin, 1 h at room temperature; HTRF ratio 665 nm/620 nm
Settings: one partner purified
observable: pKd
Lab note: report pKd as minus log10 of the concentration in molar units, number only.

Query (binder): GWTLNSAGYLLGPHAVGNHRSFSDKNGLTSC (dye A2 on the additional C-terminal cysteine, numbers count on: the mature protein; additional cysteine at the C-terminal end of the peptide, carries the dye A2; source: synthetic peptide (synthesized by Vazyme, China)) ; field requested: pKd 6.75

Provenance of the data: paper PMC8924211
